# Test system: 521955-158-R2-J5-PDC complex spheroids, viability;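 also: spheroids also contain HUVEC endothelial cells and mesenchymal stem cells as stroma; compound exposure lasted seven days before the viability read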
# assay_details: Anticancer human tumor 521955-158-R2-J5-PDC patient-derived pancreatic carcinoma cell line growth inhibition [RAS]
# stated_conditions: second compound 3.16 µM; first compound 0.01 µM; stronger effect = lower value
# Text: RAS pathway inhibitors in Combinations in Complex Spheroids A high-throughput screen of multi-cell type tumor spheroids was designed to identify active combinations of RAS pathway inhibitors and targeted small molecules. Complex spheroids include a stromal component modeled by human endothelial cells (HUVEC) and fibroblasts modeled by human mesenchymal stem cells (MSCs). […] Compounds. […] If the clinical Cmax for an agent had not been determined, the highest concentration tested was 10 microM. […]
Recorded viability, T/C for the following compounds

Use the examples below as a reference point.
[[record]]
compound = "CC(C)n1nc(-c2ccc3oc(N)nc3c2)c2c(N)ncnc21 + C#Cc1c(F)ccc2cc(O)cc(-c3ncc4c(N5CC6CCC(C5)N6)nc(OCC56CCCN5CC(F)C6)nc4c3F)c12"
measurement = "21.3%"

[[record]]
compound = "Nc1ccn(C2OC(CO)C(O)C2(F)F)c(=O)n1 (stereo not drawn) + C#Cc1c(F)ccc2cc(O)cc(-c3ncc4c(N5CC6CCC(C5)N6)nc(OCC56CCCN5CC(F)C6)nc4c3F)c12"
measurement = "41.6%"


// next item, viability, T/C requested
The compound identified as CCN1CCN(Cc2ccc(Nc3ncc(F)c(-c4cc(F)c5nc(C)n(C(C)C)c5c4)n3)nc2)CC1 + C#Cc1c(F)ccc2cc(O)cc(-c3ncc4c(N5CC6CCC(C5)N6)nc(OCC56CCCN5CC(F)C6)nc4c3F)c12 registered its viability, T/C at 44.8%

The reported numbers originate from PubChem BioAssay AID2060900.
